- target.or.system: histidine-tagged recombinant human TrkA, cytoplasmic domain (Homo sapiens (Human))
- Sequence (P04629 440-796): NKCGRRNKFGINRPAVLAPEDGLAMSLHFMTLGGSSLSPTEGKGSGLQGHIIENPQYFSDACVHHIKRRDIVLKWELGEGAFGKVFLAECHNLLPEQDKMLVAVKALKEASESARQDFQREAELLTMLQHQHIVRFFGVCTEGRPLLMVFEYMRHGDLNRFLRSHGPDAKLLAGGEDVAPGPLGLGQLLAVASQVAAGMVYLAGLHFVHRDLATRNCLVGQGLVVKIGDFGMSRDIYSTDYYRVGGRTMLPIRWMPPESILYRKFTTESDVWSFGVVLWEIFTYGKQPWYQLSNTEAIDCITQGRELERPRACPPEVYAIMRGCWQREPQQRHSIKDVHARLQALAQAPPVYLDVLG
- procedure.text: TrkA ELISA Assay
- settings: 2.5 nM TrkA, 500 μM ATP, 25 minutes; read-out: TrkA Elisa Enzyme IC50
pIC50: −log10 of the molar value.
readout: pIC50

CC(C)(O)C(=O)Nc1cnn2ccc(N3CCC[C@@H]3c3cc(F)ccc3F)nc12 [Example 50] : 7.91
Cc1cnc(C(=O)Nc2cnn3ccc(N4CCC[C@@H]4c4cccc(F)c4)nc23)cn1 [Example 82] : 8.18
CC1(O)CN(C(=O)Nc2cnn3ccc(N4CCC[C@@H]4c4cc(F)ccc4Cl)nc23)C1 [Example 22] : 7.94
Cn1ccnc1C(=O)Nc1cnn2ccc(N3CCC[C@@H]3c3cccc(F)c3)nc12 [Example 83] : 7.45
O=C(Nc1cnn2ccc(N3CCC[C@@H]3c3cc(F)ccc3F)nc12)C1(C(F)(F)F)CC1 [Example 51] : 8.28

(1) CC(C)(C)OC(=O)N1CC(C(=O)Nc2cnn3ccc(N4CCC[C@@H]4c4cc(F)ccc4Cl)nc23)C1 [Example 46]
(2) O=C(Nc1cnn2ccc(N3CCC[C@@H]3c3cc(F)ccc3F)nc12)C(=O)N1CC[C@H](O)C1 [Example 102]
Hi team, can someone confirm which has the larger pIC50: 1 or 2 ? Thanks. Kindly give the label for the entry you pick. 2
(2: 7.89, 1: 7.43)
